- Method summary: Plasma stability, dog
- Condition context: dog plasma
- Experimental: The frozen plasma was immediately melted in a water bath of 37° C. The plasma was centrifuged at 3, 220 g for 10 minutes to remove the blood clots and the supernatant was collected into a new test tube. The pH of the plasma was checked and recorded. […] The aliquots of 50 μL of the standard addition plasma were added to new test tubes and incubated in the water bath of 37° C. at approximately 60 rpm for 2 hours. […] The supernatant was diluted with 100 μL of water, mixed well and analysed using LC-MS/MS.

| Compound | half-life at 5 µM |
| --- | --- |
| O=[N+]([O-])c1ccc(C(OP(=O)(N2CC2)N2CC2)C(F)(F)F)c2ccccc12 (racemic) | > 6.22 h |

---

- Method summary: Maximal tolerance dose (MTD) test, compound C, two cycles
- Type: in vivo, ICR mice
- Condition context: both sexes, mouse, in vivo; intravenous; ICR mice; read-out: maximal tolerance dose (MTD), overall

| Compound | MTD |
| --- | --- |
| O=[N+]([O-])c1ccc([C@@H](OP(=O)(N2CC2)N2CC2)C(F)(F)F)c2ccccc12 (single isomer, unassigned) | 20 to 40 mg/kg |

---

- Method summary: Blood-brain barrier experiment, brain and plasma concentrations after IV dosing
- Assay type: in vivo, CD-1 mice
- Condition context: CD-1, mouse, plasma, iv, 1 mg/kg, IV 1 mg/kg; 1 h; single animals; read-out: Plasma concentration
Readout kind: concentration at 1 h (ng/mL)

| Compound | Numeric result |
| --- | --- |
| O=[N+]([O-])c1ccc([C@H](OP(=O)(N2CC2)N2CC2)C(F)(F)F)c2ccccc12 [Compound B] | 70 |
